- Tested on: rat inflammation model (E. coli, left hindleg)
- Run Description: Biodistribution and imaging of Tc-99m labelled conjugates in a rat inflammation model
- Experimental Context: Tc-99m labelled conjugate i.v.; Time 35 min
Where no end group is shown, it is not given here. The star is where a group is joined. Bz‑MA = benzoylmercaptoacetyl chelator, O=C(SCC(=O)*)c1ccccc1; Picolinoyl = O=C(c1ccccn1)*; Acm = CC(=O)NC*
Property Name: Urine
Write the number on its own, no unit after it.

# Substance, Number
rows = [
    ("Bz-MA-Ser-Cys-Ser-Gly-Asp-Gly-TKPPR ({Bz‑MA}-SCSGDGTKPPR) [BzMASerCys SGDG- TKPPR]", 47.8),
    ("Pic-Ser-Cys(Acm)-Gly-Asp-Gly-TKPPR (Picolinoyl-SC(Acm)GDGTKPPR) [PicSerCys(Acm) GDG TKPPR]", 63.1),
    ("PicSerCys(Acm) Gly TKPRTKPR: chelator PicSerCys(Acm), linking group Gly, peptide TKPRTKPR (tuftsin dimer, Seq ID no: 10); comparison conjugate ({Picolinoyl-Ser-Cys(Acm)}-GTKPRTKPR)", 16.1),
]

Now consider the entry below.
Lookup: State its Urine on rat inflammation model (E. coli, left hindleg): PicSerCys(Acm) Gly RTKPR: chelator PicSerCys(Acm), linking group Gly, peptide RTKPR (Seq ID no: 11); comparison conjugate ({Picolinoyl-Ser-Cys(Acm)}-GRTKPR)
Found: 45.4
